Origin of values: patent US20090170867A1

target: human TRPV1 (Homo sapiens, UniProt Q8NER1); construct: using primers designed surrounding the complete hTRPV1 open reading frame; expressed in transfected cells; host or cells: CHO-K1 cells stably transfected with pcDNA3.1(-)-hVR1 plasmid; assay: Capsaicin-based assay, Protocol 2 (TRPV1/CHO cells, Fluo-4, FLIPR); type: cell-based; conditions: capsaicin 100 nM final, mean ± SEM, number of trials in parentheses, read-out: TRPV1 IC50 Potency, Human Capsaicin CHO (hCAP-CHO)
Sequence (Q8NER1 whole entry): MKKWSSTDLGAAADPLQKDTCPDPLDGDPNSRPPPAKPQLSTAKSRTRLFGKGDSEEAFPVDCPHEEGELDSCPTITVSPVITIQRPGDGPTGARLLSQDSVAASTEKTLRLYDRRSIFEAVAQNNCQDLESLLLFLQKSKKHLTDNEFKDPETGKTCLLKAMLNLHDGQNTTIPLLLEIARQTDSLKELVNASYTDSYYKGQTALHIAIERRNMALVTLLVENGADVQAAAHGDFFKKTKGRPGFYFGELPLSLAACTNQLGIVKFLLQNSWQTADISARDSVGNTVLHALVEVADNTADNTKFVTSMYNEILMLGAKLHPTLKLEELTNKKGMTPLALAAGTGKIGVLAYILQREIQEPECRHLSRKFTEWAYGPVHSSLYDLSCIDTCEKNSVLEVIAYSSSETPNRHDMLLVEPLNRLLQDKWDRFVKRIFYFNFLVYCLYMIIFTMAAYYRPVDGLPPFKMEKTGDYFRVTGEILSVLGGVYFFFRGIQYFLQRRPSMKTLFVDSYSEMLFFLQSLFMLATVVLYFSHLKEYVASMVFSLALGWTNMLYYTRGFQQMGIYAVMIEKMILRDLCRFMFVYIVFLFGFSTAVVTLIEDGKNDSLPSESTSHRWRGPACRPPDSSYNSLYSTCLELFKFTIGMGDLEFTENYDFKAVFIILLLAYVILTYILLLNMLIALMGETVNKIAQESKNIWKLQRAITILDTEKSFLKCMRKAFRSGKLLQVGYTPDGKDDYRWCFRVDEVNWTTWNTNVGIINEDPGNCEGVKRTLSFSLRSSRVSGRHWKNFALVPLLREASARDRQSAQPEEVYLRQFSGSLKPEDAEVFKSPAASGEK
Would you mind telling me the reported IC50 of each entry?
Answers are plain numbers, in nM.

O=C(Nc1ccc(Cl)c(C(F)(F)F)c1)N1CCC(F)(c2ncc([C@H](O)CO)cc2Cl)CC1 [Compound T1] | 60.3
O=C(Nc1nc2ccc(Cl)cc2[nH]1)N1CC=C(c2ncc([C@H](O)CO)cc2Cl)CC1 [Compound P4] | 1810
O=C(Nc1nc2ccc(Cl)cc2s1)N1CC=C(c2ncc([C@H](O)CO)cc2Cl)CC1 [Compound W1] | 68.9

Then there is this compound:
Looking up O=C(Nc1ccc(C(F)(F)F)c(F)c1)N1CC=C(c2ncc([C@H](O)CO)cc2F)CC1 [Compound J1] , I see its IC50 listed as 34.5

* * *

target: human TRPV1 (Homo sapiens, UniProt Q8NER1); construct: using primers designed surrounding the complete hTRPV1 open reading frame; expressed in transfected cells; host or cells: CHO-K1 cells stably transfected with pcDNA3.1(-)-hVR1 plasmid; test: Capsaicin-based assay, Protocol 2 (TRPV1/CHO cells, Fluo-4, FLIPR); format: cell-based; details: capsaicin 100 nM final, mean ± SEM, number of trials in parentheses, read-out: TRPV1 IC50 Potency, Human Capsaicin CHO (hCAP-CHO)
MEASUREMENT NAME: pIC50
Answers are plain numbers, as −log10 of the molar value.

Known results for molecules:
O=C(Nc1nc2ccc(F)cc2s1)N1CCC(F)(c2ncc([C@@H](O)CO)cc2F)CC1 | 6.85
CC1(c2ncc([C@@H](O)CO)cc2F)CCN(C(=O)Nc2ccc(C(F)(F)F)c(Cl)c2)CC1 | 7.31

Working through the 6 molecules below one at a time, give pIC50 for each.
1. O=C(Nc1nc2ccc(F)cc2s1)N1CC=C(c2ncc(CO)cc2Cl)CC1
2. CN1CCCc2ccc(NC(=O)N3CCN(c4ncc([C@H](O)CO)cc4Cl)CC3)cc21
3. CN1CCCc2ccc(NC(=O)N3CC=C(c4ncccc4F)CC3)cc21
4. O=C(Nc1ccc(C(F)(F)F)c(-c2ccccc2)c1)N1CC=C(c2ncc(CO)cc2Cl)CC1
5. O=C(Nc1ccc(Cl)c(C(F)(F)F)c1)N1CC=C(c2ncc([C@H](O)CO)cc2Cl)CC1
6. O=C(Nc1ccc(S(=O)(=O)C(F)(F)F)cc1)N1CC=C(c2ncc([C@H](O)CO)cc2F)CC1 [Compound P1]

Reply:
6.61
6.28
5.56
6.25
6.65
7.30

* * *

biological target: human TRPV1 (Homo sapiens); construct: using primers designed surrounding the complete hTRPV1 open reading frame; expressed in transfected cells; host or cells: CHO-K1 cells stably transfected with pcDNA3.1(-)-hVR1 plasmid; assay: Capsaicin-based assay, Protocol 2 (TRPV1/CHO cells, Fluo-4, FLIPR); format: cell-based; settings: capsaicin 100 nM final, mean ± SEM, number of trials in parentheses, read-out: TRPV1 IC50 Potency, Human Capsaicin CHO (hCAP-CHO)
MEASUREMENT NAME: pIC50
Give bare numbers, as −log10 of the molar value.

CC(C)(O)c1cnc(C2=CCN(C(=O)Nc3ccc(C(F)(F)F)c(F)c3)CC2)c(Cl)c1 | 6.17
O=C(Nc1ccc(C(F)(F)F)cc1)N1CCC(F)(c2ncc([C@@H](O)CO)cc2F)CC1 | 7.42

// next item, pIC50 requested
For the compound "CC(C)S(=O)(=O)c1ccc(NC(=O)N2CC=C(c3ncc(CO)cc3Cl)CC2)cc1C(F)(F)F" , the measured pIC50 on human TRPV1 (Homo sapiens) was 5.87

* * *

Target: human TRPV1 (Homo sapiens, UniProt Q8NER1)
Construct: using primers designed surrounding the complete hTRPV1 open reading frame; expressed in transfected cells; host or cells: CHO-K1 cells stably transfected with pcDNA3.1(-)-hVR1 plasmid
Experiment: Capsaicin-based assay, Protocol 2 (TRPV1/CHO cells, Fluo-4, FLIPR)
Type: cell-based
Details: capsaicin 100 nM final, mean ± SEM, number of trials in parentheses, read-out: TRPV1 IC50 Potency, Human Capsaicin CHO (hCAP-CHO)
From the text: The TRPV1/CHO cell line was generated as described below. […] The resulting PCR products were purified from agarose gels using Gel Band Purification Kit (GE Healthcare Bioscience) and were subcloned into pCR-Blunt vector (Invitrogen). […] The plates were then transferred to a Fluorescence Imaging Plate Reader (Molecular Devices). Fluorescence intensity was monitored for 15 seconds to establish a baseline. […]
MEASUREMENT NAME: IC50
The number alone won't do; follow it with the unit.

O=C(Nc1ccc(OC(F)(F)F)cc1)N1CC=C(c2ncc([C@H](O)CO)cc2F)CC1 | 0.0663 µM
O=C(Nc1ccc(C(F)(F)F)c(F)c1)N1CC=C(c2ncc(CO)cc2Cl)CC1 | 0.156 µM
O=C(Nc1ccc(S(=O)(=O)C(F)(F)F)cc1)N1CC=C(c2ncc([C@H](O)CO)cc2Cl)CC1 | 0.051 µM

// switching to the query compound
Quick note, IC50 for "O=C(Nc1nc2ccc(F)cc2s1)N1CCC(F)(c2ncc([C@H](O)CO)cc2Cl)CC1" landed at 0.0353 µM

* * *

Would you mind telling me the reported log10(IC50) of each entry?
target: human TRPV1 (Homo sapiens, UniProt Q8NER1); construct: using primers designed surrounding the complete hTRPV1 open reading frame; expressed in transfected cells; host or cells: CHO-K1 cells stably transfected with pcDNA3.1(-)-hVR1 plasmid; assay: Capsaicin-based assay, Protocol 2 (TRPV1/CHO cells, Fluo-4, FLIPR); assay type: cell-based; conditions: capsaicin 100 nM final, mean ± SEM, number of trials in parentheses, read-out: TRPV1 IC50 Potency, Human Capsaicin CHO (hCAP-CHO)
Use the decimal logarithm of IC50 (nM).

The examples below pair each entry with its known result.
O=C(Nc1ccc(C(F)(F)F)c(Cl)c1)N1CC=C(c2ncc([C@@H](O)CO)cc2Cl)CC1 | 2.27
O=C(Nc1nc2ccc(Cl)cc2[nH]1)N1CCC(F)(c2ncc([C@@H](O)CO)cc2F)CC1 | 3.27

Fill in log10(IC50) for each of the 5 compounds listed.
1. O=C(Nc1nc2ccc(Cl)cc2s1)N1CCC(F)(c2ncc([C@H](O)CO)cc2F)CC1
2. O=C(Nc1nc2ccc(Cl)cc2s1)N1CC=C(c2ncc([C@@H](O)CO)cc2Cl)CC1
3. O=C(Nc1nc2ccc(F)cc2s1)N1CCC(F)(c2ncc([C@@H](O)CO)cc2Cl)CC1
4. O=C(Nc1ccc(C(F)(F)F)c(Cl)c1)N1CC=C(c2ncc(CO)cc2Cl)CC1 [Compound S2]
5. O=C(Nc1ccc(S(=O)(=O)C(F)(F)F)cc1)N1CC=C(c2ncc([C@@H](O)CO)cc2Cl)CC1

Reply:
1.55
2.26
2.25
2.31
1.66

Looking up "N#CCc1cnc(C2=CCN(C(=O)Nc3ccc(C(F)(F)F)cc3)CC2)c(Cl)c1" , I found its log10(IC50) recorded as 2.42

* * *

target: human TRPV1 (Homo sapiens, UniProt Q8NER1); construct: using primers designed surrounding the complete hTRPV1 open reading frame; expressed in transfected cells; host or cells: CHO-K1 cells stably transfected with pcDNA3.1(-)-hVR1 plasmid; test: Capsaicin-based assay, Protocol 2 (TRPV1/CHO cells, Fluo-4, FLIPR); format: cell-based; settings: capsaicin 100 nM final, mean ± SEM, number of trials in parentheses, read-out: TRPV1 IC50 Potency, Human Capsaicin CHO (hCAP-CHO)
Group membership follows IC50 per the scheme range 1 (below 90 nM), range 2 (90 nM to below 200 nM), range 3 (200 nM or more)

O=C(Nc1ccc(C(F)(F)F)cn1)N1CC=C(c2ncc([C@@H](O)CO)cc2Cl)CC1 | range 2
O=C(Nc1ccc(C(F)(F)F)cn1)N1CC=C(c2ncc([C@H](O)CO)cc2Cl)CC1 | range 1
O=C(Nc1ccc(C(F)(F)F)cc1)N1CC=C(c2ncc(C(CO)CO)cc2Cl)CC1 | range 3
COc1cc(NC(=O)N2CCC(F)(c3ncc([C@@H](O)CO)cc3F)CC2)ccc1C(F)(F)F | range 2
CC(C)(C)c1ccc(NC(=O)N2CCN(c3ncc([C@H](O)CO)cc3Cl)CC2)cc1 | range 1

Task item: Entry "CC(C)(O)c1cnc(C2=CCN(C(=O)Nc3ccc(C(F)(F)F)cc3)CC2)c(Cl)c1" belongs to which category?
Reply: range 3

Task item: GET /class?item= "O=C(Nc1ccc(C(F)(F)F)c(Cl)c1)N1CC=C(c2ncc([C@H](O)CO)cc2F)CC1"
Reply: range 1

Task item: Category lookup for the molecule O=C(Nc1ccc(C(F)(F)F)c(Cl)c1)N1CC=C(c2ncc(CO)cc2Cl)CC1 [Compound L2]
Reply: range 2

Task item: Which IC50 band matches O=C(Nc1ccc(C(F)(F)F)c(Cl)c1)N1CC=C(c2ncc([C@H](O)CO)cc2Cl)CC1 [Compound D2] ?
Reply: range 1

Task item: Category of "O=C(Nc1ccc(C(F)(F)F)c(F)c1)N1CC=C(c2ncc([C@@H](O)CO)cc2Cl)CC1" , please.
Reply: range 3

Task item: Which class does "COC(=O)Cc1cnc(C2=CCN(C(=O)Nc3ccc(C(F)(F)F)cc3)CC2)c(Cl)c1" fall in?
Reply: range 3

Task item: Just checking, what class would you give "O=C(Nc1ccc(C(F)(F)F)cn1)N1CCC(F)(c2ncc([C@H](O)CO)cc2Cl)CC1" here?
Reply: range 1

Task item: Kindly state the category for this molecule: "O=C(Nc1nc2ccc(Cl)cc2[nH]1)N1CCC(F)(c2ncc([C@H](O)CO)cc2Cl)CC1"
Reply: range 3
